# Test system: hLiMTs
# test-details: Combined HCI (HCS) and cellular ATP 3D assay in hLiMTs
# measurement-context: hLiMTs; ATP endpoint; cut-off <25x Avg Cmax
measure-name: hLiMTs <25x Avg Cmax ATP

compound	endpoint-result
CCOC(=O)c1ncn2c1CN(C)C(=O)c1cc(F)ccc1-2 [flumazenil, reference compound]	-ve
Nc1cc(N2CCCCC2)nc(N)[n+]1[O-] [minoxidil]	-ve
Clc1ccccc1CN1CCc2sccc2C1 [ticlopidine]	+ve
O=C1CN(/N=C/c2ccc([N+](=O)[O-])o2)C(=O)N1 [nitrofurantoin, reference compound]	+ve
COc1ccc2c(c1)c(CC(=O)O)c(C)n2C(=O)c1ccc(Cl)cc1 [indomethacin]	+ve
[H]/N=C(/N)N[C@H]1[C@H](O)[C@@H](O)[C@H](O[C@@H]2O[C@@H](C)[C@](O)(C=O)[C@H]2O[C@@H]2O[C@@H](CO)[C@H](O)[C@@H](O)[C@@H]2NC)[C@@H](N/C(N)=N\[H])[C@@H]1O [streptomycin, reference compound]	-ve
CC/C(=C(\c1ccccc1)c1ccc(OCCN(C)C)cc1)c1ccccc1 [tamoxifen]	+ve
CNC1(C)C2CCC(C2)C1(C)C (centres unmarked) [mecamylamine]	-ve
O=c1[nH]c(=O)n([C@@H]2O[C@H](CO)[C@@H](O)[C@@H]2F)cc1I [fialuridine]	+ve
Cc1cc2c(cc1CC(=O)c1sccc1S(=O)(=O)Nc1onc(C)c1Cl)OCO2 [sitaxsentan]	-ve

Memo: NNC(=O)c1ccncc1 [isoniazid, reference compound] , reported hLiMTs <25x Avg Cmax ATP: -ve

The compound listed as C#CCN(C)Cc1ccccc1 [pargyline] has a reported hLiMTs <25x Avg Cmax ATP of -ve

Briefly, hLiMTs <25x Avg Cmax ATP measured for CC[C@H]1OC(=O)[C@H](C)[C@@H](O[C@H]2C[C@@](C)(OC)[C@@H](O)[C@H](C)O2)[C@H](C)[C@@H](O[C@@H]2O[C@H](C)C[C@H](N(C)C)[C@H]2O)[C@](C)(O)C[C@@H](C)C(=O)[C@H](C)[C@@H](O)[C@]1(C)O [erythromycin] : -ve

----------
# System: hLiMTs
# test-details: Combined HCI (HCS) and cellular ATP 3D assay in hLiMTs
# measurement-context: hLiMTs; HCS endpoints; cut-off <25x Avg Cmax
measure-name: hLiMTs <25x Avg Cmax HCS

Here is how some compounds turned out for hLiMTs <25x Avg Cmax HCS.
compound	endpoint-result
CN(C)CCCN1c2ccccc2Sc2ccc(Cl)cc21 [chlorpromazine, reference compound]	+ve
NC(=O)N1c2ccccc2C=Cc2ccccc21 [carbamazepine, reference compound]	+ve
CC[C@H]1OC(=O)[C@H](C)[C@@H](O[C@H]2C[C@@](C)(OC)[C@@H](O)[C@H](C)O2)[C@H](C)[C@@H](O[C@@H]2O[C@H](C)C[C@H](N(C)C)[C@H]2O)[C@](C)(O)C[C@@H](C)C(=O)[C@H](C)[C@@H](O)[C@]1(C)O	-ve
Cc1ccc(N(CC2=NCCN2)c2cccc(O)c2)cc1	-ve
[H]/N=C(/N)N[C@H]1[C@H](O)[C@@H](O)[C@H](O[C@@H]2O[C@@H](C)[C@](O)(C=O)[C@H]2O[C@@H]2O[C@@H](CO)[C@H](O)[C@@H](O)[C@@H]2NC)[C@@H](N/C(N)=N\[H])[C@@H]1O [streptomycin, reference compound]	-ve

Kindly note the recorded hLiMTs <25x Avg Cmax HCS for `CN1CCN(C2=Nc3cc(Cl)ccc3Nc3ccccc32)CC1` , which is +ve

Noted for CC(C)(C)NCC(O)COc1cccc2c1CC(O)C(O)C2 (stereo not drawn) : its hLiMTs <25x Avg Cmax HCS reads -ve

Note to self: hLiMTs <25x Avg Cmax HCS recorded for `N[C@@H](Cc1cc(I)c(Oc2ccc(O)c(I)c2)c(I)c1)C(=O)O` was -ve

compound `C#CCN(C)Cc1ccccc1` , hLiMTs <25x Avg Cmax HCS observed: -ve
